experiment-summary: Pharmacokinetics and metabolism in rat plasma after a single intravenous or oral dose (HPLC)
Format: in vivo
conditions-used: female, Wistar, in vivo, iv, 10 mg/kg
Procedure: Female Wistar (155–165 g) rats were purchased from Charles River UK Ltd (Margate, Kent, UK) and housed in a dedicated animal facility. […] 2-MeOE2bisMATE was separated from its putative metabolites, 2-MeOE2, 2-MeOE2-3MATE and 2-MeOE2-17MATE, using a modified version of a reversed-phase HPLC method described previously ([Hildago Aragones et al, 1996]). […] 2-Methoxyoestradiol-bis-sulphamate, 2-MeOE2 and their metabolites were analysed with a photodiode array detector with detection at 285 nm. […]
experimental-endpoint: Cmax

* COc1cc2c(cc1OS(N)(=O)=O)CCC1C2CC[C@]2(C)C(OS(N)(=O)=O)CCC12 (stereo partly shown) [2-MeOE2bisMATE, 2-methoxyoestradiol-bis-sulphamate] | 6550 ng/mL

---

experiment-summary: Pharmacokinetics and metabolism in rat plasma after a single intravenous or oral dose (HPLC)
Format: in vivo
conditions-used: female, Wistar, in vivo, iv, 10 mg/kg
experimental-endpoint: AUC (µg·h/mL)

- COc1cc2c(cc1OS(N)(=O)=O)CCC1C2CC[C@]2(C)C(OS(N)(=O)=O)CCC12 (stereo partly shown) [2-MeOE2bisMATE, 2-methoxyoestradiol-bis-sulphamate]: 514
